# Test target: 5-hydroxytryptamine receptor 3A (Homo sapiens, UniProt P46098); further: assay procedure not described here
# Sequence (P46098 whole entry): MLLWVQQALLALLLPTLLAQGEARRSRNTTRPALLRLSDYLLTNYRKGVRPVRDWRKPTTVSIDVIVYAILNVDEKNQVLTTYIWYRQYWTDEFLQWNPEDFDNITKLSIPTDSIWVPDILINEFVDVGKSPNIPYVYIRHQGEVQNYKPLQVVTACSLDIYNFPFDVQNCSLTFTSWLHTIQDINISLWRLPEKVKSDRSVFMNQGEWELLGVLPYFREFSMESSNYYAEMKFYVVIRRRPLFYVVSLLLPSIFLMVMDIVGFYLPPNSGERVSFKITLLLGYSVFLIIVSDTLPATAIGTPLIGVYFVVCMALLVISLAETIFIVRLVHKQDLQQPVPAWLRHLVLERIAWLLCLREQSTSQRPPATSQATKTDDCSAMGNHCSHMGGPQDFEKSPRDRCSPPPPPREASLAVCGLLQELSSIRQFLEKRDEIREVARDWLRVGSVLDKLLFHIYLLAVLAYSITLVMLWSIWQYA
# Type: functional
Please provide measured AC50 for the entries that follow.

Find the measured AC50 of C[C@]12C=CC(=O)C=C1C(Cl)=C[C@@H]1[C@@H]2[C@@H](O)C[C@@]2(C)[C@H]1CC[C@]2(O)C(=O)CO and report it.
> 30 µM

Annotate the compound COc1ccc(C(=O)c2ccccc2)c(O)c1 with its measured AC50.
> 30 µM

Fill in reported AC50 for this entry: CN1CC2c3ccccc3Oc3ccc(Cl)cc3C2C1 (centres undefined)
18 µM

Look up and report measured AC50 for this entry: CC(=O)N1CCN(c2ccc(OCC3COC(Cn4ccnc4)(c4ccc(Cl)cc4Cl)O3)cc2)CC1 (centres undefined)
> 30 µM

----------
Endpoint: AC50

Fill in: AC50 on Sodium-dependent serotonin transporter (Homo sapiens), entry CS(=O)(=O)NC(=O)CCC/C=C\C[C@H]1C(=O)C[C@@H](O)[C@@H]1/C=C/[C@@H](O)COc1ccccc1
Sequence (P31645 whole entry): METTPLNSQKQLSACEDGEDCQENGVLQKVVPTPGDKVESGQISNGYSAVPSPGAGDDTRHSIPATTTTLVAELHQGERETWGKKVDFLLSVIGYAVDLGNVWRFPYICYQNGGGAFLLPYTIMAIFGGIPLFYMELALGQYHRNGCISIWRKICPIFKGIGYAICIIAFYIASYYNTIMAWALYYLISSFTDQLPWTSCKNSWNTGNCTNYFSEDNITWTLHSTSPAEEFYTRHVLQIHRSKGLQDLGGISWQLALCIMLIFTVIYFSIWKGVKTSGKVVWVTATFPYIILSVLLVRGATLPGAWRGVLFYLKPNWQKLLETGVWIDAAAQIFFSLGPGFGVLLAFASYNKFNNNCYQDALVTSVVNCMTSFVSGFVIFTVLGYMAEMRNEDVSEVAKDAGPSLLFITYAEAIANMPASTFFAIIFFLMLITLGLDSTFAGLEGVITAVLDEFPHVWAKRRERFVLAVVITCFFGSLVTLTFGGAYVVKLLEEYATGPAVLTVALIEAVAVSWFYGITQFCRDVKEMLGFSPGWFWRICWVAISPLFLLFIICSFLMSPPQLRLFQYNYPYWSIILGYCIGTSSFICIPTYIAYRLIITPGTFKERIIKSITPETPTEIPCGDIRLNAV
> 30 µM

# return AC50 for Cn1cnc2c(F)c(Nc3ccc(Br)cc3F)c(C(=O)NOCCO)cc21 , test system: Sodium-dependent serotonin transporter (Homo sapiens); further: assay procedure not described here
> 30 µM

Tell me AC50 of O=C(O[C@H]1C[N+]2(CCCOc3ccccc3)CCC1CC2)C(O)(c1cccs1)c1cccs1 [ACLIDINIUM BROMIDE] when tested on Sodium-dependent serotonin transporter (Homo sapiens). Further: assay procedure not described here.
> 10 µM

Quote AC50 with test system Sodium-dependent serotonin transporter (Homo sapiens) for CCN(CC)CCCN(c1ccccc1)C1Cc2ccccc2C1; further: assay procedure not described here
3.3 µM

Provide the reported AC50 (system: Sodium-dependent serotonin transporter (Homo sapiens)) for CC(=O)SCC(Cc1ccccc1)C(=O)NCC(=O)OCc1ccccc1 (stereo not drawn); further: assay procedure not described here
> 30 µM

Give measured AC50 for C[C@]12CCC(=O)C=C1CC[C@H]1[C@@H]3CC[C@](O)(C(=O)CO)[C@@]3(C)C[C@H](O)[C@@]12F (Sodium-dependent serotonin transporter (Homo sapiens)).
> 30 µM

Provide measured AC50 on Sodium-dependent serotonin transporter (Homo sapiens) for CC(C)/N=c1\cc2n(-c3ccc(Cl)cc3)c3ccccc3nc-2cc1Nc1ccc(Cl)cc1 please.
20 µM

Look up and report measured AC50 (Sodium-dependent serotonin transporter (Homo sapiens)) for the following compound: CO[C@@H]1[C@@H](OC(N)=O)[C@@H](O)[C@H](Oc2ccc3c(O)c(NC(=O)c4ccc(O)c(CC=C(C)C)c4)c(=O)oc3c2C)OC1(C)C
> 30 µM

----------
# Test target: UniProt P35348
# Sequence (P35348 whole entry): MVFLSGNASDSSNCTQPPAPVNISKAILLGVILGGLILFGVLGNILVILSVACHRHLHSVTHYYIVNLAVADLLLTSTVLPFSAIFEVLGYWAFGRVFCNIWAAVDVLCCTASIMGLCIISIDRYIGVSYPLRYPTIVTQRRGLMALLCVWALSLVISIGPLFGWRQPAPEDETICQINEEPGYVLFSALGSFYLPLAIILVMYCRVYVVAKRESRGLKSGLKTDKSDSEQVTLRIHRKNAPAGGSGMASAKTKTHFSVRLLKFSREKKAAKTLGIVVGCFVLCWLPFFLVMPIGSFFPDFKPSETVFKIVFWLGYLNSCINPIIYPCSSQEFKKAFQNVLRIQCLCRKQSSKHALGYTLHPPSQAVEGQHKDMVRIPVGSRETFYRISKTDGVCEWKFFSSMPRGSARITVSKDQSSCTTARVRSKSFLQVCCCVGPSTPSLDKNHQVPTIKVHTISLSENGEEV
Give measured AC50 for each item. Keep answers brief.

State, for UniProt P35348, measured AC50 of the molecule listed here: CC1=C(CC(=O)O)c2cc(F)ccc2/C1=C\c1ccc([S+](C)[O-])cc1 (stereo not given)
> 10 µM

Please report the measured AC50 for OCCOCCN1CCN(C(c2ccccc2)c2ccc(Cl)cc2)CC1 (stereo not given) [HYDROXYZINE] tested on UniProt P35348.
1.66 µM

Provide the reported AC50 (system: UniProt P35348) for Cc1cccc(Nc2ccncc2S(=O)(=O)NC(=O)NC(C)C)c1 [TORSEMIDE]
> 10 µM

Find the measured AC50 of CCC1(c2ccccc2)C(=O)NCNC1=O with UniProt P35348 as test system.
> 10 µM

Give measured AC50 for COc1nc(C)nc(Cl)c1N=C1NCCN1 (UniProt P35348).
> 30 µM

Retrieve AC50 on UniProt P35348; query CN(C)CCOC(=O)C(c1ccccc1)C1(O)CCCC1 (stereo not given) [CYCLOPENTOLATE]
> 30 µM

Fill in AC50 for CCC1(C)CC(=O)NC1=O (stereo not given) [ETHOSUXIMIDE] tested with UniProt P35348.
> 30 µM

Lab note: UniProt P35348 assay, enter AC50 for CC(C)(N)Cc1ccccc1 here
> 10 µM

Tell me AC50 of OCCN(CCO)c1nc(N2CCCCC2)c2nc(N(CCO)CCO)nc(N3CCCCC3)c2n1 when tested on UniProt P35348.
> 30 µM

Report AC50 from UniProt P35348 testing of CNC1(C)C2CCC(C2)C1(C)C (stereo not given)
> 10 µM
